Recorded half-life at 20 µM by entry
Test: In vitro pharmacokinetics: metabolic stability in liver microsome
Format: in vitro ADME
Conditions: liver microsomes; human liver microsome 1 mg/ml, 20 μM compound
Method: Metabolic stabilities of the compounds of the Examples were examined by employing microsome samples prepared from the human liver. Each 20 μM of the compounds were reacted with 1 mg/ml of liver microsome and the half-lives and one-hour stabilities of the compounds were determined.

CO/C=C(/C(=O)OC)c1ccc(Cl)cc1COc1ccc(N2CCOCC2)cn1    0.925 h

Kindly note the recorded half-life at 20 µM for `CO/C=C(/C(=O)OC)c1ccc(Cl)cc1COc1ccc(OCCOC)cc1` , which is > 3 h

Kindly note the recorded half-life at 20 µM for `CO/C=C(/C(=O)OC)c1ccc(Cl)cc1COc1ccc(OCC2CC2)cc1` , which is > 3 h

====

System: MG-63 cells
Experiment: Cytotoxicity test against osteoblast (MTT)
Format: cell-based, human
Conditions: 3 μM compound
Mark 1 (yes) only when relative absorbance (MTT) relative to control (set as 100) stays strictly below 90. Values equal to the cut-off are 0 (no).

For orientation, consider the following solved cases.
CO/C=C(/C(=O)OC)c1ccccc1COc1cccc(N2CCN(C)CC2)c1    0 (no)
CO/C=C(/C(=O)OC)c1ccccc1COc1cccc(N2CCCCC2)c1    1 (yes)
CO/C=C(/C(=O)OC)c1ccccc1COc1ccc(N2CCCCC2)cc1    1 (yes)
CO/C=C(/C(=O)OC)c1ccccc1COc1cccc(CN2CCOCC2)c1    0 (no)
CO/C=C(/C(=O)OC)c1ccc(Cl)cc1COc1cccc(N2CCOCC2)c1    1 (yes)

Consider the record given below.
Problem: For the molecule `CO/C=C(/C(=O)OC)c1ccc(Cl)cc1COc1ccc(N2CCOCC2)cn1` , is relative absorbance (MTT) relative to control (set as 100) under 90?
0 (no)

====

Test system: osteoclast (TRAP-positive multinuclear cell) formation
Experiment: Inhibitory effect on osteoclast formation (TRAP staining)
Assay type: cell-based, mice
Conditions: 3.0 μM; 8 days culture with M-CSF and RANKL; compared to control
Recorded Osteoclast formation inhibitory effects (%) by entry
Give a bare numeral; the unit % is implied.

Answered cases to consult:
CO/C=C(/C(=O)OC)c1ccccc1COc1cccc(OCC=C(C)C)c1    100
CCCOc1ccc(OCc2ccccc2/C(=C\OC)C(=O)OC)cc1    100

We now examine a further compound.
# Osteoclast formation inhibitory effects (%) measured on osteoclast (TRAP-positive multinuclear cell) formation for item `CCCCCCCCc1cccc(OCc2ccccc2/C(=C\OC)C(=O)OC)c1` = 100

====

Experiment: In vivo pharmacokinetics using female mice (serum concentration, HPLC)
Conditions: mouse, serum, iv, I.V., read-out: CL (clearance) (converted)
value.type: clearance (mL/min)
Give a bare numeral; the unit mL/min is implied.

Answered cases to consult:
CO/C=C(/C(=O)OC)c1ccccc1COc1cccc(N2CCCC2)n1    0.0317
CO/C=C(/C(=O)OC)c1ccccc1COc1cccc(N2CCCCC2)c1    0.0483
CO/C=C(/C(=O)OC)c1ccccc1COc1cccc(CN2CCOCC2)c1    0.0567

We now examine a further compound.
Kindly note the recorded clearance for `CO/C=C(/C(=O)OC)c1ccc(Cl)cc1COc1ccc(OCCOC)cc1` , which is 0.238

====

System: osteoclast pregenitor cells
Test: Cytotoxicity against osteoclast pregenitor (MTT)
Format: cell-based, mice
Conditions: 2 uM; 48 hrs; absorbance at 550 nm
Recorded relative absorbance relative to that of the control (set as 100), MTT by entry
API doc: respond with a numeric literal and nothing else, no unit.

Answered cases to consult:
CO/C=C(/C(=O)OC)c1ccccc1COc1cccc(C(OC)OC)c1 [compound 133]    93
CO/C=C(/C(=O)OC)c1ccccc1COc1cccc(C(F)CC(C)(F)F)c1 (stereo not shown) [compound 205]    101
CO/C=C(/C(=O)OC)c1ccccc1COc1cccc(OCC=C(C)C)c1 [compound 217]    90
CCC(C)Oc1cccc(OCc2ccccc2/C(=C\OC)C(=O)OC)c1 (stereo not shown) [compound 221]    96

We now examine a further compound.
# relative absorbance relative to that of the control (set as 100), MTT measured on osteoclast pregenitor cells for item CCCCCCOc1cccc(OCc2ccccc2/C(=C\OC)C(=O)OC)c1 [compound 220] = 89

====

Tested on: osteoclast pregenitor cells
Assay: Cytotoxicity against osteoclast pregenitor (MTT)
Type: cell-based, mice
Settings: 8 uM; 48 hrs; absorbance at 550 nm
Recorded relative absorbance relative to that of the control (set as 100), MTT by entry
API doc: respond with a numeric literal and nothing else, no unit.

Answered cases to consult:
CO/C=C(/C(=O)OC)c1ccccc1COc1cccc(C(F)CC(C)(F)F)c1 (stereo not shown)    104
CCCCCCOc1cccc(OCc2ccccc2/C(=C\OC)C(=O)OC)c1    96
CCC(C)Oc1cccc(OCc2ccccc2/C(=C\OC)C(=O)OC)c1 (stereo not shown)    99
CO/C=C(/C(=O)OC)c1ccccc1COc1cccc(C(F)CC(C)=O)c1 (stereo not shown)    108

We now examine a further compound.
Kindly note the recorded relative absorbance relative to that of the control (set as 100), MTT for `CO/C=C(/C(=O)OC)c1ccccc1COc1cccc(OC2CCCC2)c1` , which is 101

====

Assay: In vivo pharmacokinetics using female mice (serum concentration, HPLC)
Settings: mouse, serum, 15 mg/kg, Oral, read-out: Half-life (converted)
value.type: Half-life (h)
Give a bare numeral; the unit h is implied.

Kindly note the recorded Half-life for `CO/C=C(/C(=O)OC)c1ccc(Cl)cc1COc1ccc(OCCOC)cc1` , which is 4.2

====

Tested on: osteoclast pregenitor cells
Assay: Cytotoxicity against osteoclast pregenitor (MTT)
Assay type: cell-based, mice
Conditions: 4 uM; 48 hrs; absorbance at 550 nm
value.type: relative absorbance relative to that of the control (set as 100), MTT
API doc: respond with a numeric literal and nothing else, no unit.

Answered cases to consult:
CO/C=C(/C(=O)OC)c1ccccc1COc1cccc(OC2CCCC2)c1    108
CCCCCCOc1cccc(OCc2ccccc2/C(=C\OC)C(=O)OC)c1    98
CO/C=C(/C(=O)OC)c1ccccc1COc1cccc(OCC=C(C)C)c1    96

Kindly note the recorded relative absorbance relative to that of the control (set as 100), MTT for CO/C=C(/C(=O)OC)c1ccccc1COc1cccc(C(F)CC(C)=O)c1 (stereo not shown) , which is 102

Kindly note the recorded relative absorbance relative to that of the control (set as 100), MTT for `C=CCOc1cccc(OCc2ccccc2/C(=C\OC)C(=O)OC)c1` , which is 103

====

Recorded One-hour stability by entry
Test: In vitro pharmacokinetics: metabolic stability in liver microsome
Format: in vitro ADME
Conditions: human liver microsome 1 mg/ml, 20 μM compound
Give a bare numeral; the unit % is implied.

Answered cases to consult:
CO/C=C(/C(=O)OC)c1ccc(Cl)cc1COc1ccc(OCC2CC2)cc1    70
C=CCOc1ccc(OCc2ccccc2/C(=C\OC)C(=O)OC)cc1    70

Kindly note the recorded One-hour stability for `CO/C=C(/C(=O)OC)c1ccccc1COc1ccc(C2OCCCO2)cc1` , which is 40

Kindly note the recorded One-hour stability for `CO/C=C(/C(=O)OC)c1ccc(Cl)cc1COc1ccc(OCCOC)cc1` , which is 72

====

System: rats
Experiment: In vivo acute toxicity test (LD50)
Details: PO, single dose, 2 weeks observation
From the text: In order to determine the acute toxicities of the compounds prepared in Examples, 6-week old specific pathogen-free (SPF) rats each weighing […] were divided into groups of 10 rat each. […]
Recorded LD50 by entry
Give a bare numeral; the unit mg/kg body weight is implied.

Answered cases to consult:
C=CCOc1cccc(OCc2ccccc2/C(=C\OC)C(=O)OC)c1    500
C=CCOc1ccc(OCc2cc(Cl)ccc2/C(=C\OC)C(=O)OC)cc1    269
CO/C=C(/C(=O)OC)c1ccc(Cl)cc1COc1ccc(OCCOC)cc1    460

We now examine a further compound.
Kindly note the recorded LD50 for `C=CCOc1ccc(OCc2ccccc2/C(=C\OC)C(=O)OC)cc1` , which is 500

====

Tested on: MG-63 cells
Assay: Cytotoxicity test against osteoblast (MTT)
Type: cell-based, human
Conditions: 3 uM
Recorded relative absorbance relative to that of the control (set as 100), MTT by entry

Answered cases to consult:
CO/C=C(/C(=O)OC)c1ccc(Cl)cc1COc1ccc(OCC=C(C)C)cc1 [compound 269]    88
CO/C=C(/C(=O)OC)c1ccccc1COc1cccc(OCCN2CCOCC2)c1 [compound 234]    97
C=CCCCCCCOc1cccc(OCc2ccccc2/C(=C\OC)C(=O)OC)c1 [compound 197]    103
CCCCCCOc1ccc(OCc2cc(Cl)ccc2/C(=C\OC)C(=O)OC)cc1 [compound 271]    64
C=CCOc1ccc(OCc2ccccc2/C(=C\OC)C(=O)OC)cc1 [compound 179]    106
CCCCCCOc1cccc(/C(C)=N/OCc2ccccc2/C(=C\OC)C(=O)OC)c1 [compound 15]    76

Kindly note the recorded relative absorbance relative to that of the control (set as 100), MTT for C=CCOc1cccc(OCc2ccccc2/C(=C\OC)C(=O)OC)c1 [compound 211] , which is 106

Kindly note the recorded relative absorbance relative to that of the control (set as 100), MTT for CO/C=C(/C(=O)OC)c1ccc(Cl)cc1COc1ccc(OCCOC)cc1 [Compound No. 274] , which is 94

Kindly note the recorded relative absorbance relative to that of the control (set as 100), MTT for CO/C=C(/C(=O)OC)c1ccccc1COc1cccc(C(OC)OC)c1 [compound 133] , which is 103

Kindly note the recorded relative absorbance relative to that of the control (set as 100), MTT for CO/C=C(/C(=O)OC)c1ccccc1CON=C(C)c1cccc(OCCN2CCOCC2)c1 [compound 20] , which is 105

Kindly note the recorded relative absorbance relative to that of the control (set as 100), MTT for C=CCOc1ccc(OCc2cc(Cl)ccc2/C(=C\OC)C(=O)OC)cc1 [compound 264] , which is 92
